Quick reference: pIC50 of the listed items.
Biological target: human p38 kinase alpha (Homo sapiens, UniProt Q16539)
Construct: The coding region of the human p38a cDNA was obtained by PCR-amplification from RNA isolated from the human monocyte cell line THP.1; GST (N); made in house; host or cells: E. coli DH10B
Sequence (Q16539 whole entry): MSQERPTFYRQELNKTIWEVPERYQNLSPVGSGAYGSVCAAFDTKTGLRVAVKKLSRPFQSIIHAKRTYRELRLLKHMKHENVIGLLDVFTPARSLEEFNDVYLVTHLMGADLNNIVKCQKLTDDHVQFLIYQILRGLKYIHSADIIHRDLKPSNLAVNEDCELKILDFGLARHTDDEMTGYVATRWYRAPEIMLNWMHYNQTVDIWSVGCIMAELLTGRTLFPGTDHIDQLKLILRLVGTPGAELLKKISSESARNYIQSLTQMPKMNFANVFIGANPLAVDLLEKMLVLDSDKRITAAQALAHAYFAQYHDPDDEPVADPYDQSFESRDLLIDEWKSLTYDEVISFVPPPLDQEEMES
Experiment: p38 kinase in vitro assay, phosphorylation of biotinylated PHAS-I with gamma 32P-ATP
Assay type: biochemical
Conditions: read-out: P38 alpha kinase IC50
pIC50: −log10 of the molar value.

Compound | pIC50
CN(C)[C@H]1CC[C@@H](c2[nH]nc(-c3cccc(Cl)c3)c2-c2ccncc2)CC1 [Example C-106] | 7.59
Cc1ccccc1C(=O)NCc1[nH]nc(-c2ccc(F)cc2)c1-c1ccncc1 [Example B-0267] | 6.32
CCS(=O)(=O)NC(Cc1ccccc1)c1[nH]nc(-c2ccc(F)cc2)c1-c1ccncc1 (stereo not shown) [Example B-0717] | 5.37
CN(C)[C@H]1CC[C@@H](c2[nH]nc(-c3ccc(F)cc3)c2-c2ccncc2)CC1 [Example C-99] | 7.21
